Tested on: HIV-1
Details: 93AOHDC249, CCR5 tropic HIV-1 primary isolate; TZM-bl cells
READOUT KIND: IC50 (nM)
Quick reminder: number only, in nM, skip the unit.

Quick one: IC50 for COC(=O)C1C(C(=O)OCc2ccccc2)=CCC12C(=O)N1[C@@H](C(=O)OC(c3ccccc3)c3ccccc3)C(C)(C)S[C@@H]12 (some centres unmarked) [BSS-722A] ?
332

# get_value(readout='IC50', item= CC1(C)S[C@H]2N(C(=O)[C@]23CC=C(C(=O)OCc2ccccc2)[C@@H]3C(=O)c2ccccc2)[C@H]1C(=O)OC(c1ccccc1)c1ccccc1 [BSS-730A] )
26
